Compiled literature Ki, tested on σ1-receptor (Cavia porcellus, UniProt Q60492).
Sequence (Q60492 whole entry): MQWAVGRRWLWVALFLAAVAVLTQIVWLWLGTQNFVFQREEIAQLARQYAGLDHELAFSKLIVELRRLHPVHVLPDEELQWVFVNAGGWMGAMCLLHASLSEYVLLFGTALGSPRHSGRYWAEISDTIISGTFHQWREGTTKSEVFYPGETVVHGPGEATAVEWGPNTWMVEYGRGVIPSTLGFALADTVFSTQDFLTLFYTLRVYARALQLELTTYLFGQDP
measured-parameter: Ki (nM)

Use these answered entries as a reference point.
compound	observed-measurement
Cc1cc(COCCN2CCCC2)nn1-c1ccc(Cl)c(Cl)c1	6.12
CC1(C)[C@H](COCc2ccccc2)C[C@@H]1CCN1CCCCC1	1.2
Cc1cc(COCCN2C[C@@H](C)O[C@@H](C)C2)nn1-c1ccc(Cl)c(Cl)c1	3.2

1: CC1(C)[C@@H](CCn2cccn2)C[C@H]1CN1CCCCC1
2: FC(F)(F)c1ccc(-c2nnn3c2CO[C@@H]2CN(Cc4ccccc4)C[C@H]23)cc1 (relative stereo)
3: CC1(C)[C@@H](CCOc2ccccc2)C[C@H]1CN1CCCCC1
4: Fc1ccc(-c2ncnc3c2cnn3CCN2CCC(F)(F)CC2)c(Cl)c1
Ask: Sort (4 compounds) by Ki: min first. Note for the reader: the ranking is given by listing the labels in the order requested.
Result: 3, 1, 2, 4
(3: 2.2 nM, 1: 4.9 nM, 2: 31.3 nM, 4: 318 nM)

----------
Compiled literature Ki, tested on σ1-receptor (Cavia porcellus).
measured-parameter: Ki (nM)

Use these answered entries as a reference point.
compound	Ki, nM
Fc1ccc(Nc2ncc3n2CCN(Cc2ccccc2)C3)cc1	44
c1ccc(-n2ncc3c2CCOC3CN2CCOCC2)cc1 (stereo not drawn)	169
Fc1cc(Cl)ccc1-c1ncnc2c1cnn2CCN1CCCCC1	112

1: Clc1ccc(-c2ncnc3c2cnn3CCN2CCCCC2)cc1
2: COc1cc2c(cc1OC)CN(CCCCNC(=O)c1cc(Br)cc(OC)c1OCCOCCF)CC2
3: COc1cc2c(cc1OC)CN(CCCCNC(=O)c1cc(Br)ccc1OCCOCCOCCF)CC2
Ask: Sort (3 compounds) by Ki: min first. Note for the reader: the ranking is given by listing the labels in the order requested.
Result: 1, 2, 3
(1: 42.6 nM, 2: 669 nM, 3: 1010 nM)

1: CC1(C)[C@H](COCc2ccccc2)C[C@@H]1CCN1CCOCC1
2: FC(F)(F)c1ccccc1-c1ncnc2c1cnn2CCN1CCCCC1
Ask: // which entry has the larger Ki value, 1 or 2 ? Which one? Tell me its label.
Result: 2
(2: 125 nM, 1: 8.4 nM)

----------
pKi: −log10 of the molar value.
Compiled literature pKi, tested on σ1-receptor (Cavia porcellus, UniProt Q60492).
measured-parameter: pKi

Use these answered entries as a reference point.
molecule	pKi
c1nc(-c2cnsc2)c2cnn(CCN3CCCCC3)c2n1	6.32
CC(=O)C1CCN(CCOc2cc(C)n(-c3ccc(Cl)c(Cl)c3)n2)CC1.O=C(O)C(=O)O	8.08

I: Cc1cc(COCCN2CCOCC2)nn1C1CCCC1
II: c1ccc(C2CCN(CCC3OCCc4c3cnn4-c3ccccc3)CC2)cc1 (centres unmarked)
III: COc1cc2c(cc1OC)CN(CCCCNC(=O)c1cc(I)ccc1OCCOCCF)CC2
Ask: Sort (3 molecules) by pKi: min first. Note for the reader: the ranking is given by listing the labels in the order requested.
Result: III, I, II

----------
Compiled literature Ki, tested on σ1-receptor (Cavia porcellus, UniProt Q60492).
measured-parameter: Ki (nM)

Use these answered entries as a reference point.
molecule-smiles	unit-string	Ki
c1ccc2cc(C3CCN(CCCCOc4cc5ccccn5n4)CC3)ccc2c1	nM	11
Fc1ccc(-c2ncnc3c2cnn3CCN2CCCCC2)cc1	nM	95.4
CC(=O)N1CCN(CCOCc2cc(C)n(-c3ccc(Cl)c(Cl)c3)n2)CC1	nM	14.6
CC1(C)[C@@H](CCOCc2ccccc2)C[C@H]1CN1CCC(c2ccccc2)CC1	nM	16.6
Cc1cc(COCCCN2CCOCC2)nn1C1CCCCC1	nM	6.8
CCCNC(=O)Nc1ncc2n1CCN(CC1CCCCC1)C2	nM	71
Cc1cc(COCCN2CCOCC2)nn1-c1ccc(Cl)c(Cl)c1	nM	13.8
COc1cc2c(cc1OC)CN(CCCCNC(=O)c1cc(Br)ccc1OCCOCCF)CC2	nM	1040

I: Cc1cc(CCCN2CCOCC2)nn1-c1ccc(Cl)c(Cl)c1
II: CC1(C)[C@@H](COCc2ccccc2)C[C@H]1CN1CCC(c2ccccc2)CC1
Ask: Given the listed items, does I or II have the lesser reported Ki? Which one? Tell me its label.
Result: I
(I: 4.74 nM, II: 10.9 nM)
